- study_target: GPR109B; also: reference of the scale not given here
- method_description: pooled miR-30 sensor sort-seq; sequence = guide strand
- experimental_context: shRNA
Some sequences, each annotated with its measured sensor-assay potency score (higher = more potent).

Here's what some known entries look like.
primary_sequence=TGGCAATGAAGTCATCTCGGAA study_target=GPR109B result=-1.54
primary_sequence=TAGGCCAACAGTGATGCCCCAC study_target=GPR109B result=-0.395
primary_sequence=TAGTAGTCCATCACGAACGGCA study_target=GPR109B result=-0.532
primary_sequence=TTGGAATGGTTATTTGAGGTTG study_target=GPR109B result=-0.497
primary_sequence=TGCAGTGCCATTCTGGATCAGC study_target=GPR109B result=-0.994
primary_sequence=AAACATGAAGAGCACCAGCCGG study_target=GPR109B result=-1.47

Switching to the query record.
// TAGAAAGTCAGCTACTGCCAGG : sensor-assay potency score (higher = more potent) value = -1.14
